- Tested on: Plasmodium falciparum
- METHOD: GSK_TCMDC: Inhibition of Plasmodium falciparum 3D7 in whole red blood cells, using parasite LDH activity as an index of growth. Test compounds present at 2uM
- Assay type: functional
OBSERVED PROPERTY: Inhibition (%)
The reply should contain only the number, in %.

Previously resolved entries follow.
                                  structure            measured_on  observed_property  readout_number
0  CCN(CC)C(=O)c1cnc(-c2ccccc2)nc1Oc1cccc(Cl)c1  Plasmodium falciparum         Inhibition              92
1  Cl.O=c1cc(NCCCNCc2ccc(Cl)c(Cl)c2)[nH]c2ccc(Oc3ccccc3)cc12  Plasmodium falciparum         Inhibition              92
2  COc1cc(C2=NN(S(=O)(=O)c3c(Cl)cc(Cl)cc3Cl)CCCC2)ccc1Cl  Plasmodium falciparum         Inhibition              98
3                      Clc1ccccc1OCc1ccccn1  Plasmodium falciparum         Inhibition              85

Tested system Plasmodium falciparum; Inhibition recorded for `COc1ccc2ccccc2c1CNCC1CCN(CC2CCCCC2)CC1.O=C(O)C(F)(F)F` was 98

Tested system Plasmodium falciparum; Inhibition recorded for `O=C(Nc1ccc(CN2CCOCC2)cc1)c1ccc(-c2ccc(Cl)cc2)o1` was 98

----------
- Tested on: Plasmodium falciparum
- METHOD: GSK_TCMDC: Inhibition of Plasmodium falciparum 3D7 in whole red blood cells, using parasite LDH activity as an index of growth. Test compounds present at 2uM
- Type: functional
Please note: Y applies when Inhibition is 90% or greater, and N applies otherwise.

>>> print(df.to_string())
                                   compound  label
0  CCCNCCc1ccc(NS(=O)(=O)c2cccc(-c3ccc(Cl)cc3)c2)cc1.Cl      Y
1  CCN(CC)CCN(Cc1ccc(-c2ccc(C(F)(F)F)cc2)cc1)C(=O)Cn1c(CCc2cccc(F)c2F)c(C)c(=O)c2ccccc21.O=C(O)C(O)C(O)C(=O)O      N
2  CC(=O)N(C)C1CCN(Cc2ccc(-c3ccc(-c4nc5cc(F)ccc5[nH]4)s3)cc2)C1.O=C(O)C(F)(F)F (stereo not drawn)      Y
3  O=C(/C=C/c1ccc(Cl)cc1)NCCCCCN1CCCC(C(=O)Nc2ccc(F)c(Cl)c2)C1 (stereo not drawn)      Y

query: API: above_or_equal(metric=Inhibition, cutoff=90%) for item COc1ccccc1-c1ccc(C(=O)NCC2CCCN(Cc3cccc(C(F)(F)F)c3)C2)s1.O=C(O)C(F)(F)F (stereo not drawn)
result: N

----------
- Test system: HepG2
- METHOD: GSK_TCMDC: Percent inhibition of human HepG2 cell line. Test compounds present at 10uM.
- Format: functional
Could you mark each record 1 (yes) if its Inhibition falls strictly under 10%, and 0 (no) if it equals or exceeds it?

Consider the worked cases shown below.
                                   molecule    label
0  Cc1ccc(CNC(=O)[C@H](Cc2ccccc2)Nc2cc(C)nc(NCC3CCCCC3)n2)cc1.O=C(O)C(F)(F)F  1 (yes)
1  O=C(O)C(F)(F)F.OC1(Cc2ccccc2)CCN(Cc2cccc(-c3c[nH]c4nc(NC5CCCC5)ncc34)c2)CC1   0 (no)
2  NC1CCN(Cc2ccc(-c3ccc(-c4nc5cc(F)ccc5[nH]4)cc3)cc2)C1.O=C(O)C(F)(F)F (centres undefined)   0 (no)
3  COc1ccc2nccc([C@@H](O)CN3CCC(NC(=O)c4ccc5cc[nH]c5c4)CC3)c2c1.CS(=O)(=O)O   0 (no)
4  CC(C)[C@@H](C(=O)NCc1cccc(C(F)(F)F)c1)N1C(=O)CCC1C(=O)Nc1ccc([N+](=O)[O-])cc1 (some centres undefined)  1 (yes)

query: Please check: Inhibition for `Cc1cccc(-c2cccc(CNc3nc(NCCc4ccc(O)cc4)nc(N4CCNCC4)n3)c2)c1.O=C(O)C(F)(F)F` , strictly under 10% or not?
result: 0 (no)

query: Please check: Inhibition for COc1ccc(S(=O)(=O)NC2CCN(CCCOc3ccnc4cc(Cl)ccc34)C2)cc1OC (centres undefined) , strictly under 10% or not?
result: 1 (yes)

----------
- Tested on: HepG2
- METHOD: GSK_TCMDC: Percent inhibition of human HepG2 cell line. Test compounds present at 10uM.
- Format: functional
A collection of compounds and their measured Inhibition
The reply should contain only the number, in %.

In [3]: df
Out[3]:
                                   compound  observed_property  readout_number
0  FC(F)(F)c1ccc2[nH]c(-c3cccc(-c4cccc(CNCCN5CCNCC5)c4)c3)nc2c1.O=C(O)C(F)(F)F         Inhibition              29

Entry Cc1nc2ccc3ccc(CNc4ccc(C(=O)CC(CCC(=O)O)C(=O)O)cc4)cc3c2c(=O)[nH]1.[Cl-].[Na+] (centres undefined) , Inhibition reported as 51

Entry `Br.COc1ccccc1CCCON1C(=N)N=C(N)NC1(C)C` , Inhibition reported as 68

Entry `Cl.NOCCCCOc1ccc(Br)cc1` , Inhibition reported as 0

Entry COc1cc(Cc2cnc(N)nc2N)cc(OCCCCC2NC(=O)NC2=O)c1OC (centres undefined) , Inhibition reported as 2

Entry `COc1cccc(CNC(=O)c2cnc(N3CCN(c4ccncc4)CC3)c(Cl)c2)c1.O=C(O)C(F)(F)F` , Inhibition reported as 25

Entry `COc1ccc(Oc2ccc(Nc3ccnc4ccc(C(F)(F)F)cc34)cc2)cc1OC.Cl` , Inhibition reported as 0

Entry Cc1ccc(NC(=O)NC2CCN(CCCCCNC(=O)C3CC3c3ccc(Cl)c(Cl)c3)CC2)cc1 (centres undefined) , Inhibition reported as 35

Entry Cl.O=C(Nc1ccc(C(=O)OCC2CCCN3CCCCC23)cc1)c1ccc([N+](=O)[O-])cc1 (centres undefined) , Inhibition reported as 5

----------
- Tested on: HepG2
- METHOD: GSK_TCMDC: Percent inhibition of human HepG2 cell line. Test compounds present at 10uM.
- Type: functional
Please note: Yes applies when Inhibition is 10% or greater, and No applies otherwise.

query: API: above_or_equal(metric=Inhibition, cutoff=10%) for item `COc1ccc2ncc(C#N)c(CCN3CCC(NCc4ccc5c(c4)OCCO5)CC3)c2c1.Cl`
result: Yes

query: API: above_or_equal(metric=Inhibition, cutoff=10%) for item CN(C)CCn1c(=N)n(CC(O)c2ccc(Cl)c(Cl)c2)c2ccccc21.Cl (centres undefined)
result: Yes

query: API: above_or_equal(metric=Inhibition, cutoff=10%) for item `CCC(CC)(CCC#N)CN(C[C@@H](O)[C@H](Cc1ccccc1)NC(=O)OC(C)(C)C)S(=O)(=O)c1ccc(OC)cc1`
result: No

query: API: above_or_equal(metric=Inhibition, cutoff=10%) for item CCOc1ccc(C(=O)N2CCOC(CCN3CCC(c4ccccc4)CC3)(c3ccc(Cl)c(Cl)c3)C2)cc1 (centres undefined)
result: Yes

query: API: above_or_equal(metric=Inhibition, cutoff=10%) for item COc1ccc(CNC(=O)NC2CCN(c3ccnc(Nc4ccc(OC)cc4)n3)C2)cc1 (centres undefined)
result: Yes

----------
- System: Plasmodium falciparum
- METHOD: GSK_TCMDC: Inhibition of Plasmodium falciparum Dd2 in whole red blood cells, using parasite LDH activity as an index of growth. Test compounds present at 2uM
- Format: functional
Could you mark each record yes if its Inhibition falls strictly under 8%, and no if it equals or exceeds it?

Consider the worked cases shown below.
                                   molecule  label
0  COc1cc2c(cc1OC)CN(CCc1ccc(NC(=O)c3cc4cc(Cl)ccc4[nH]3)cc1)CC2    yes
1  O=C(Nc1ccc(C(F)(F)F)cc1)c1cccc(S(=O)(=O)NC2CCN(Cc3ccccc3)C2)c1.O=C(O)C(F)(F)F (centres undefined)    yes
2  O=C(O)C(F)(F)F.c1cc(CNCCN2CCNCC2)cc(-c2cccc(-c3nc4ccccc4[nH]3)c2)c1    yes
3  CCOC(=O)CN1Cc2cc(NCc3ccc4ccc5nc(C)[nH]c(=O)c5c4c3)ccc2C1=O     no
4  CN(C)Cc1ccc(-c2cc3ncnc(Nc4ccc(OCc5cccc(F)c5)c(Cl)c4)c3s2)[nH]1     no

query: Please check: Inhibition for `O=C(Nc1cccc(CN2CCCN(Cc3cccc(O)c3)CC2)c1)c1ccc(Cl)c(Cl)c1.O=C(O)C(F)(F)F` , strictly under 8% or not?
result: no

query: Please check: Inhibition for Cc1cccc(CC2CC(=O)N(c3ccc([N+](=O)[O-])cc3)C2=O)c1 (centres undefined) , strictly under 8% or not?
result: yes

query: Please check: Inhibition for `COc1cc2nc(N3CCC(CNC(=O)c4ccc(-c5ccc(C(=O)N(C)C)cc5)cc4)CC3)nc(N)c2cc1OC` , strictly under 8% or not?
result: no
